Data provenance is patent US20110300156A1.

measurementTarget: human tissue factor (TF), membrane-bound on cells (human, UniProt P13726 33-295)
test: cell-based or functional assay
The entries below come with measured max inhibition of FVIIa induced IL-8 release (MDA-MB-231) values attached.
Numeric only. Scale: %

Consider the reported max inhibition of FVIIa induced IL-8 release (MDA-MB-231) for these binders:
{"binder": "anti-TF HuMab 101 (antibody, V domains shown, Human monoclonal antibody from HuMab mice) VH: EVQLLESGGGLVQPGGSLRLSCAASGFTFSNYAMSWVRQAPAKGLDWVSGISGSGVTTYYADSVKGRFTISRDNSKDTLYLQMNSLRAEDTAVYFCAKTPWGYYFDYWGQGILVAVSS VL: DIQMTQSPSSLSASVGDRVTITCRASQGISSWLAWYQQKPEKAPKSLIYAASSLQSGVPSRFSGSGSGTDFTLTISSLQPEDFATYYCQQYNSYPLYTFGQGTKLEIK", "u": "%", "reading": 74.9}
{"binder": "anti-TF HuMab 098 (antibody, V domains shown, Human monoclonal antibody from HuMab mice; also called HuMab-TF-098; HuMab-TF-98) VH: QVQLVQSGAEVRKPGSSVKVSCKASGGSFNNYPIFWVRQAPGQGFEWMGRIIPILGITAYAQKFQGRVTITADKSTSTAYMELNSLRSEDTAVYYCAGGDDLDAFDIWGQGTMVSVSS VL: DIQMTQSPSSLSASVGDRVTITCRASQGISSWLAWYQQKPEKAPKSLIYAASSLQSGVPSRFSGSGSGTDFTLTISSLQPEDFATYYCQQYNSYPYTFGQGTKLEIK", "u": "%", "reading": 59}
{"binder": "anti-TF HuMab 025 (antibody, V domains shown, Human monoclonal antibody from HuMab mice) VH: QVQLVESGGGVVQPGRSLRLSCAASGFTFSRYAMHWVRQAPGKGLEWVAVISNDGYNDYYADSVKGRFTVSRDNSKNTLYLQMNSLRAEDTAVYYCARDGQLGRGYFDYWGQGTLVTVSS VL: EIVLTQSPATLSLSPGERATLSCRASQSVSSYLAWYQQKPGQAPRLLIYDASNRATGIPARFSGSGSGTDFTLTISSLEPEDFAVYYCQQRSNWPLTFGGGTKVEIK", "u": "%", "reading": 75.6}

In: Which max inhibition of FVIIa induced IL-8 release (MDA-MB-231) value belongs to anti-TF HuMab 087-Lg6 (antibody, V domains shown, Human monoclonal antibody from HuMab mice) VH: EVQLVQSGAEVKKPGESLKISCKGSGYSFTSCWIGWVRQMPGKGLEWMGIIYPGDSDTRYSPSFQGQVTISADKSISTAYLQWSSLKASDTAMYYCARHKLGMDHDAFDIWGQGTMVTVSS VL: DIQMTQSPSSLSASVGDRVTITCRASQGISSWLAWYQQKPEKAPKSLIYAASSLQSGVPSRFSGSGSGTDFTLTISSLQPEDFATYYCQQYNSYPPTFGQGTTVEVK ?
Out: 4.3

In: Entry anti-TF HuMab 044 (antibody, V domains shown, Human monoclonal antibody from HuMab mice) VH: QVQLVESGGGVVQPGRSLRLSCAASGFTFSDYAMHWVRQAPGKGLEWVAVIPYDGDNKYYADSVKGRFTISRDNSKNTLYLQMNSLRAEDTAVYYCAREDWGLEVDYWGQGALVTVSS VL: AIQLTQSPSSLSASVGDRVTITCRASQGINSALAWYQQKPGKAPKLLIYDASSLESGVPSRFSGSGSGTDFTLTISSLQPEDFATYYCQQFNSYPLTFGGGTKVEIK : reported max inhibition of FVIIa induced IL-8 release (MDA-MB-231) = ?
Out: 17.2

In: # lookup: max inhibition of FVIIa induced IL-8 release (MDA-MB-231) of anti-TF HuMab 109 (antibody, V domains shown, Human monoclonal antibody from HuMab mice) VH: QVQLVESGGGVVQPGRSLRLSCPASGFTFSIYAMHWVRQAPGKGLEWVAVVSNDGYNKYYADSVKGRFTISRDNSKDTLYLQMNSLRAEDTAVYYCARDGQLGRGYFDYWGQGTLVTVSS VL: EIVLTQSPATLSLSPGERAILSCRASQSVSSYLAWYQQKPGQAPRLLIYDASNRATGIPARFSGSGSGTDFTLTISSLEPEDFAVYYCQQRSNWPLTFGGGTKVEIK
Out: 70.4
